# assay-info: Pharmacokinetic (PK) assay, plasma AUC in mice
# Assay type: in vivo
# assay-conditions: mouse, plasma, 10 mg/kg po
The following compounds are listed with their measured AUC(0-inf) values.

Guide cases for AUC(0-inf), answers given:
                                item_smiles        result
0  Cc1ccc(NNC(=O)/C=C\n2cnc(-c3cc(C(F)(F)F)cc(C(F)(F)F)c3)n2)nc1  4170 ng·h/mL
1  O=C(/C=C/n1cnc(-c2cc(C(F)(F)F)cc(C(F)(F)F)c2)n1)NNc1cnccn1  7140 ng·h/mL

Okay, next one:
Recorded AUC(0-inf) for O=C(/C=C\n1cnc(-c2cc(C(F)(F)F)cc(C(F)(F)F)c2)n1)NNc1cc(Cl)ncn1 , please?
24900 ng·h/mL
